Value source: patent US12146004B2

- Tested on: Escherichia coli
- Type: cell-based
Bridge positions count the residues as written; N and C are the ends. Square brackets hold non-standard residues; d marks the D form. Peptide text beside a SMILES is read from it. * marks the point of attachment. ξ: configuration not given here. X10 = NC[C@H](OCc1ccc(Cl)cc1)C(=O)*; dCha = N[C@H](CC1CCCCC1)C(=O)O; Thr(3ξ) = CC(O)[C@H](N)C(=O)O; X20 = NCC(Cc1ccccc1F)C(=O)*; X8 = NCC(C(=O)*)C1CCCCC1; Dab = NCC[C@H](N)C(=O)O; Dap = NC[C@H](N)C(=O)O
measure: MIC E. coli 058

Worked examples follow.
compound	MIC E. coli 058
CC(C)CC(CN)C(=O)N[C@H](C(=O)N[C@@H](CN)C(=O)N[C@H]1CCNC(=O)[C@H]([C@@H](C)O)NC(=O)[C@H](CCN)NC(=O)[C@H](CCN)NC(=O)[C@H](CC(C)C)NC(=O)[C@@H](Cc2ccc(-c3ccc(C(F)(F)F)cc3)cc2)NC(=O)[C@H](CCN)NC1=O)C(C)O (single isomer, unassigned; isomer 1)	4 µg/mL
CCCCCCCCC1CNCC1C(=O)N[C@H](C(=O)N[C@@H](CCN)C(=O)N[C@H]1CCNC(=O)[C@H]([C@@H](C)O)NC(=O)[C@H](CCN)NC(=O)[C@H](CCN)NC(=O)[C@H](CC(C)C)NC(=O)[C@@H](Cc2ccc(-c3ccccc3)cc2)NC(=O)[C@H](CCN)NC1=O)C(C)O (single isomer, unassigned; isomer 1) [Example 7]	2 µg/mL
CC(C)C[C@@H]1NC(=O)[C@@H](CC2CCCCC2)NC(=O)[C@H](CCN)NC(=O)[C@@H](NC(=O)[C@H](CN)NC(=O)[C@@H](NC(=O)[C@H](CN)OCc2ccc(Cl)cc2)[C@@H](C)O)CCNC(=O)[C@H]([C@@H](C)O)NC(=O)[C@H](CCN)NC(=O)[C@H](CCN)NC1=O [Example 81] (X10-T[Dap][Dab][Dab][dCha]L[Dab][Dab]T; lactam 3-C)	1 µg/mL
CC(C)C[C@@H]1NC(=O)[C@@H](CC2CCCCC2)NC(=O)[C@H](CCN)NC(=O)[C@@H](NC(=O)[C@H](CN)NC(=O)[C@@H](NC(=O)C(CN)C2CCCCC2)C(C)O)CCNC(=O)[C@H]([C@@H](C)O)NC(=O)[C@H](CCN)NC(=O)[C@H](CCN)NC1=O (stereo partly drawn) [Example 28] (X8-[Thr(3ξ)][Dap][Dab][Dab][dCha]L[Dab][Dab]T; lactam 3-C)	1 µg/mL

query: Name the recorded MIC E. coli 058 for CC(C)C[C@@H]1NC(=O)[C@@H](CC2CCCCC2)NC(=O)[C@H](CCN)NC(=O)[C@@H](NC(=O)[C@H](CCN)NC(=O)[C@@H](NC(=O)C(CN)Cc2ccccc2F)[C@@H](C)O)CCNC(=O)[C@H]([C@@H](C)O)NC(=O)[C@H](CCN)NC(=O)[C@H](CCN)NC1=O (stereo partly drawn) [Example 62, 3-amino-2-(2-fluorobenzyl) propanoyl] (X20-T[Dab][Dab][Dab][dCha]L[Dab][Dab]T; lactam 3-C) .
result: 4 µg/mL

query: Name the recorded MIC E. coli 058 for CC(C)C[C@@H]1NC(=O)[C@@H](CC2CCCCC2)NC(=O)[C@H](CCN)NC(=O)[C@@H](NC(=O)[C@H](CN)NC(=O)[C@@H](NC(=O)CC(N)C2CCCCC2)C(C)O)CCNC(=O)[C@H]([C@@H](C)O)NC(=O)[C@H](CCN)NC(=O)[C@H](CCN)NC1=O (single isomer, unassigned; isomer 2) [Example 33] .
result: 2 µg/mL
